Hey, just so you know, these numbers are from the supplement of paper PMC10307832.

Quick reference: relative viability of the listed items.
# System: NCI-H1975
# assay.comment: relative viability (nuclei count vs DMSO), 5 days (fraction); higher = more cells survive
# protocol.conditions: first compound 1 µM

compound: O=c1cc(N2CCOCC2)oc2c(-c3cccc4c3sc3ccccc34)cccc12 + CS(=O)(=O)CCNCc1ccc(-c2ccc3ncnc(Nc4ccc(OCc5cccc(F)c5)c(Cl)c4)c3c2)o1 [Lapatinib] (partner 2 µM)
relative viability: 0.826
--
compound: CCN(CC)CCCCNc1ncc2cc(-c3cc(OC)cc(OC)c3)c(NC(=O)NC(C)(C)C)nc2n1 + NC(=O)Nc1cc(-c2cccc(F)c2)sc1C(=O)N[C@H]1CCCNC1 [AZD7762] (partner 0.2 µM)
relative viability: 0.601
--
compound: O=c1cc(N2CCOCC2)oc2c(-c3cccc4c3sc3ccccc34)cccc12 + Cc1nc(NC(=O)N2CCC[C@H]2C(N)=O)sc1-c1ccnc(C(C)(C)C(F)(F)F)c1 [Alpelisib] (partner 2 µM)
relative viability: 0.608
--
compound: CCN(CC)CCCCNc1ncc2cc(-c3cc(OC)cc(OC)c3)c(NC(=O)NC(C)(C)C)nc2n1 + COc1cccc2cc(-c3nc([C@H]4CC[C@H](C(=O)O)CC4)n4ncnc(N)c34)[nH]c12 [OSI-027] (partner 0.5 µM)
relative viability: 0.559
--
compound: O=c1cc(N2CCOCC2)oc2c(-c3cccc4c3sc3ccccc34)cccc12 + CC(=O)c1c(C)c2cnc(Nc3ccc(N4CCNCC4)cn3)nc2n(C2CCCC2)c1=O [Palbociclib] (partner 0.5 µM)
relative viability: 0.591

====

# System: NCI-H1793
# assay.comment: relative viability (nuclei count vs DMSO), 5 days (fraction); higher = more cells survive
# protocol.conditions: first compound 0.01 µM
Quick reference: relative viability of the listed items.
observed.property: relative viability

compound: CCN(CC)CCCCNc1ncc2cc(-c3cc(OC)cc(OC)c3)c(NC(=O)NC(C)(C)C)nc2n1 + CC1(C)CCC(c2ccc(Cl)cc2)=C(CN2CCN(c3ccc(C(=O)NS(=O)(=O)c4ccc(N[C@H](CCN5CCOCC5)CSc5ccccc5)c(S(=O)(=O)C(F)(F)F)c4)cc3)CC2)C1 [Navitoclax] (partner 0.5 µM)
obs.value: 0.988
--
compound: CCN(CC)CCCCNc1ncc2cc(-c3cc(OC)cc(OC)c3)c(NC(=O)NC(C)(C)C)nc2n1 + CS(=O)(=O)CCNCc1ccc(-c2ccc3ncnc(Nc4ccc(OCc5cccc(F)c5)c(Cl)c4)c3c2)o1 [Lapatinib] (partner 2 µM)
obs.value: 0.623
--
compound: CCN(CC)CCCCNc1ncc2cc(-c3cc(OC)cc(OC)c3)c(NC(=O)NC(C)(C)C)nc2n1 + Nc1ncn([C@H]2C[C@H](O)[C@@H](CO)O2)c(=O)n1 [Decitabine] (partner 2 µM)
obs.value: 0.496
--
compound: CCN(CC)CCCCNc1ncc2cc(-c3cc(OC)cc(OC)c3)c(NC(=O)NC(C)(C)C)nc2n1 + O=C(CCCCCCC(=O)Nc1ccccc1)NO [Vorinostat] (partner 1 µM)
obs.value: 0.724
--
compound: CCN(CC)CCCCNc1ncc2cc(-c3cc(OC)cc(OC)c3)c(NC(=O)NC(C)(C)C)nc2n1 + COc1cccc2cc(-c3nc([C@H]4CC[C@H](C(=O)O)CC4)n4ncnc(N)c34)[nH]c12 [OSI-027] (partner 0.5 µM)
obs.value: 0.238
--
compound: CCN(CC)CCCCNc1ncc2cc(-c3cc(OC)cc(OC)c3)c(NC(=O)NC(C)(C)C)nc2n1 + CC(=O)Nc1cccc(-n2c(=O)n(C3CC3)c(=O)c3c(Nc4ccc(I)cc4F)n(C)c(=O)c(C)c32)c1 [Trametinib] (partner 0.02 µM)
obs.value: 0.456
--
compound: O=c1cc(N2CCOCC2)oc2c(-c3cccc4c3sc3ccccc34)cccc12 + O=C(CCCCCCC(=O)Nc1ccccc1)NO [Vorinostat] (partner 1 µM)
obs.value: 0.771
--
compound: O=c1cc(N2CCOCC2)oc2c(-c3cccc4c3sc3ccccc34)cccc12 + N=C(N)NC(=N)NCCc1ccccc1 [Phenformin] (partner 250 µM)
obs.value: 0.386
--
compound: O=c1cc(N2CCOCC2)oc2c(-c3cccc4c3sc3ccccc34)cccc12 + CC(=O)Nc1cccc(-n2c(=O)n(C3CC3)c(=O)c3c(Nc4ccc(I)cc4F)n(C)c(=O)c(C)c32)c1 [Trametinib] (partner 0.02 µM)
obs.value: 0.372
